- target.system: Glucose transporter (Leishmania mexicana) (UniProt O61059)
- protocol: ST_JUDE_LEISH: Cytotoxicity at 2uM final concentration against transgenic Leishmania Mexicana promastigotes LmGT2 that are glucose transport deficient and complemented with the L. Mexicana glucose transporter 2. Activity is measured by DNA content using SYBR green in vitro
- Format: functional
property.measured: inhibition (%)
Respond with the bare value in %.

Request the reported inhibition associated with `CC(C)[C@H](NC(=O)c1ccc(O)c(-c2cccc(C(F)(F)F)c2)c1)C(=O)NCCN1CCCCC1`
0.62

Given the entry `Cc1cc(=NN=Cc2ccccc2Cl)c2ccccc2[nH]1` , report its measured inhibition.
5.86

# get_value(readout='inhibition', item= `COc1ccc2nccc([C@@H](O)CN3CCC(NC(=O)c4ccc(Cl)c([N+](=O)[O-])c4)CC3)c2c1` )
0

# input compound: `C(=Cc1nc2ccccc2s1)c1ccc2c(c1)OCCO2` ; wanted: its inhibition
-2.03

Item under review: CCNc1cc(C(=O)N[C@@H](Cc2ccccc2)[C@H](O)CNCCC(C)c2ccccc2)cc(N2CCCC2=O)c1 (stereo partly specified) . Reported inhibition?
1.33

For `CN(c1ccccc1C(=O)Nc1cc(Cl)ccc1Oc1ccccc1)S(=O)(=O)c1ccccc1` , what is its reported inhibition?
3.66

* * *

- target.system: Glucose transporter (Leishmania mexicana) (UniProt O61059)
- protocol: ST_JUDE_LEISH: Cytotoxicity at 2uM final concentration against transgenic Leishmania Mexicana promastigotes LmGT2 that are glucose transport deficient and complemented with the L. Mexicana glucose transporter 2. Activity is measured by DNA content using SYBR green in vitro
- Type: functional
property.measured: inhibition (%)
Numeric answer only, unit % assumed.

I'd like to know its inhibition. The compound in question is `Cn1cc(-c2ccccc2C(=O)O)c(=O)c2cc(Cl)ccc21`
2.49

Name the reported inhibition value associated with the compound `COc1ccc(-c2cccc(NC(=O)c3ccc(C#N)cc3)c2)cc1CNC(C)C`
8.32

I am curious: what inhibition value has been reported for `COc1cccc2cc(C(=O)N[C@@H](CC(C)C)C(=O)N[C@H](/C=N/NC(=O)c3ccccc3)Cc3c[nH]cn3)oc12` ?
3.92

Please look up its inhibition: `COc1cc(NC(=O)/C=C/c2cccc3ccoc23)ccc1OCCN(C(C)C)C(C)C`
1.81

# input compound: `O=C(/C=C/c1ccc(Cl)c(Cl)c1)NCCCCCN1CCC(NC(=O)c2ccc3ccccc3c2)CC1` ; wanted: its inhibition
1.46

So what does the record say about inhibition for `COc1cccc(NC(=O)Nc2cc(C)nc3ccccc23)c1` ?
2.43

I'd like to know its inhibition. The compound in question is `O=C(Nc1ccc(F)c([N+](=O)[O-])c1)Nc1cc(C(F)(F)F)ccc1Cl`
1.2

Name the reported inhibition value associated with the compound `Cc1cc(-c2nc3ccc(C(=O)NCc4ccccc4)cc3n2C2CCN(C(=O)c3ccc(-c4ccccc4)cc3)CC2)ccn1`
1.94

Consider the compound N#Cc1ccc(N/C(=N\c2ccc(-c3ccccc3)cc2)NC2CCCc3ccccc32)c(O)c1 (centres undefined) and give its measured inhibition.
-0.07

Query: inhibition; subject: `COc1cccc2sc(N3CCN(C(=O)c4ccc([N+](=O)[O-])o4)CC3)nc12`
4.81

Item under review: `CN1CCN(CC2(Nc3nccc(NCc4ccc(Cl)cc4Cl)n3)CCCCC2)CC1` . Reported inhibition?
6.18

Field request: inhibition | item: `O=C(C=Cc1ccc(Cl)c(Cl)c1)NCCCCCN1CCC(CCNS(=O)(=O)c2ccc(F)cc2)CC1`
4.55

Find the recorded inhibition belonging to `Cn1c(=O)c2nc(-c3ccc(Cl)cc3)nnc2n(CCCC#N)c1=O` and report it.
6.19

Given `COc1cccc(CNC(=O)c2cccc(-c3cccc(CN4CCC(N5CCCC5)CC4)c3)n2)c1` , state its recorded inhibition.
6.93

// query inhibition value for entry `CCOC(=O)c1ccc(OCc2ccc(-c3ccccc3)cc2)cc1`
0.75

# get_value(readout='inhibition', item= `Cn1cnc(CCNC(=O)c2ccc(-c3ccc(-c4nc5cc(F)ccc5[nH]4)cc3)cc2)c1` )
4.84

Reported inhibition, compound `COc1cc(F)c2ncc(Cl)c(CCN3CCC(NCc4cc5c(cn4)OCCO5)CC3)c2c1` : ____
55.4

Which inhibition value belongs to `COc1cc(NCCCNC(=O)c2ccc(Cl)c(Cl)c2)nc2ccccc12` ?
5.08

Recorded inhibition for `Oc1ccc2nc(Nc3ccccc3)nc(NCCc3ccccc3)c2c1` , please?
5.72
